# System: TRPC4 beta (transient receptor potential cation channel C4), mouse
# experiment-notes: positive allosteric modulators of mouse TRPC4, confirmation, cell-based, Fluo-4, HEK293 TRPC4beta/mu-opioid (AID 2555)
# test-context: DAMGO EC20, Fluo-4 calcium flux, at 10 µM
Activity calls are given as the source filed them.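 Rule for the calls: active = primary screen hit whose calcium fluorescence ratio, in both repeats, exceeds the weak agonist control mean by 3 SD; inactive = the rest.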
Answer with one of the outcomes active, inactive

Exam item: Called result for O=C(CNS(=O)(=O)c1ccc2ccccc2c1)NCCc1ccccn1
Marked response: inactive

Exam item: Okay, and CCn1c(=O)cc(OCC(=O)NCCCN2CC(C)CC(C)C2)c2ccccc21 (stereo not drawn) ?
Marked response: inactive

Exam item: Okay, and CC1(c2ccc(Cl)cc2Cl)OCC(Cn2ccnc2)O1 (stereo not drawn) ?
Marked response: inactive

Exam item: Okay, and Cc1cccc(C(=O)NNC(=S)NC(=O)c2ccccc2)c1 ?
Marked response: inactive

Exam item: Okay, and CCOC(=O)C1(CCOc2ccccc2)CCN(Cc2cnc(C)s2)CC1 ?
Marked response: inactive

Exam item: Okay, and CCn1c(SCC(=O)c2cc(C)n(CC3CCCO3)c2C)nc2ccccc21 (stereo not drawn) ?
Marked response: inactive

* * *

# assayed-target: Potassium voltage-gated channel subfamily KQT member 2 (Rattus norvegicus)
# experiment-notes: rat KCNQ2 channel potentiation, selectivity assay for KCNQ1 potentiator project, KCNQ2-CHO-K1 cells (AID 493009);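 note: assay conditions were tuned for KCNQ1 rather than KCNQ2 modulators; signal is max minus min fluorescence divided by baseline after thallium stimulus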
# test-context: FluxOR thallium flux fluorescence, at 10 µM; active compounds read high, scaled: buffer 0, activator control 100
Activity calls are given as the source filed them.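 Rule for the calls: active = mean duplicate potentiation above the buffer control mean plus 5 SD of buffer wells; inactive = the rest.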
measurement-name: potentiation

Answered cases to consult:
molecule=O=[N+]([O-])c1cccc(/C=N/Nc2nc(NCc3ccccc3)nc(N3CCOCC3)n2)c1O measurement_name=potentiation test_result=inactive
molecule="CCOC(=O)c1c(NC(=S)NCC2CCCO2)sc(C)c1C (configuration not stated)" measurement_name=potentiation test_result=inactive
molecule=S=c1nc(-c2ccccc2)[nH]n1-c1ccccc1 measurement_name=potentiation test_result="532% (active)"
molecule=CCSc1nnc(-c2ccncc2)n1Cc1ccccc1 measurement_name=potentiation test_result=inactive
molecule=CCc1ccc(NC(=O)CSc2nc3ccsc3c(=O)n2CCC(=O)O)cc1 measurement_name=potentiation test_result="172% (active)"

Exam item: So what's the measured potentiation for this one? Cc1ccc(-c2csc3nc[nH]c(=S)c23)cc1
Marked response: 300% (active)

Exam item: Okay, and OCCN1CCN(c2nc(-c3ccccc3)nc3c2oc2ccccc23)CC1 ?
Marked response: inactive

Exam item: Okay, and CCc1cccc(C)c1NC(=O)c1ccc2nc(N3CCOCC3)sc2c1 ?
Marked response: inactive

Exam item: Okay, and CC(C)(C)c1cc(-c2csc(Nc3ccccc3)[n+]2Cc2ccc(C(=O)O)cc2)cc(C(C)(C)C)c1O ?
Marked response: 198% (active)

Exam item: Okay, and Cc1ccc(NC(=S)N2CCC(N(C)CC3CCCO3)CC2)cc1 (configuration not stated) ?
Marked response: inactive

Exam item: Okay, and CC1CN(S(=O)(=O)c2ccc(Cl)c(C(F)(F)F)c2)CC(C)O1 (configuration not stated) ?
Marked response: inactive

Exam item: Okay, and O=c1[nH]cc(S(=O)(=O)c2ccccc2)[nH]1 ?
Marked response: inactive

Exam item: Okay, and CCn1c(=S)[nH]c2scc(-c3cccs3)c2c1=O ?
Marked response: 528% (active)

* * *

# assayed-target: Potassium voltage-gated channel subfamily KQT member 1 (Homo sapiens) (UniProt P51787)
# Sequence (P51787 whole entry, looked up): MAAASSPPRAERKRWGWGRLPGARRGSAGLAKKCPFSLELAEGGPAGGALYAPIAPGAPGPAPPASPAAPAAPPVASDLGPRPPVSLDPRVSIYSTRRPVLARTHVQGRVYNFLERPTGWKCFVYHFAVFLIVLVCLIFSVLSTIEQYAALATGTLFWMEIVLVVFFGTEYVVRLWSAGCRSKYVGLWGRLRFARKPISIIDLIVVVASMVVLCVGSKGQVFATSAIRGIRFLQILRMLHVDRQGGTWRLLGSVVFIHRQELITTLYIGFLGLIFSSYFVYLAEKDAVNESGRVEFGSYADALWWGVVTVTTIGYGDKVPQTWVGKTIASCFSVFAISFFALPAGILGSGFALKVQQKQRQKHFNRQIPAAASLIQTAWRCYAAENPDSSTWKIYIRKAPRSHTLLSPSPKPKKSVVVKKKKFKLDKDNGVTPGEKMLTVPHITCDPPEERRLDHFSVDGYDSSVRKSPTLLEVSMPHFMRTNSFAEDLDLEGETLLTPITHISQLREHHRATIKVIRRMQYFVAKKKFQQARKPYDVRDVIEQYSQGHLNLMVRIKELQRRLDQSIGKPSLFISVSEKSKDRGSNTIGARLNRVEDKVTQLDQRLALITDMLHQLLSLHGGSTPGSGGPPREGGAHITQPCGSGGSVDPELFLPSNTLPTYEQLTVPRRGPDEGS
# experiment-notes: KCNQ1 potassium channel potentiators, confirmation, FluxOR thallium flux, CHO cells, duplicates (AID 493007)
# test-context: KCNQ1 cell line, FluxOR thallium flux fluorescence, at 10 µM, % of reference activator effect, buffer zero
Active and inactive are the calls of the source.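 How the source made its calls: active means potentiation averaged over duplicate wells exceeding buffer-only control mean by more than 3 SD; inactive means the rest.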
Answer with one of the outcomes True (active), False (inactive)

Example entries begin here.
compound=O=c1[nH]c(=S)[nH]c2sc3c(c12)CCCCCC3 label_class=False
compound="CCC1(c2ccccc2)NC(=S)N(c2ccc(C)cc2)N1 (stereo unspecified)" label_class=True
compound=Cc1cc(C)nc(N/N=C/c2cccc3ccccc23)n1 label_class=False
compound=CCCOc1ccc(C(=O)NNC(=S)NC(=O)c2cccs2)cc1 label_class=True
compound=COc1ccc(C(=O)N=C2CCC(C#N)=C3c4cc(OC)c(OC)cc4CCN23)cc1 label_class=True

Now look at this entry.
Exam item: Called result for CCOc1ccc(-c2noc(CCC(=O)NC3CCCC3)n2)cc1OC
Marked response: False

* * *

# assayed-target: Potassium voltage-gated channel subfamily KQT member 1 (Homo sapiens) (UniProt P51787)
# experiment-notes: KCNQ1 potassium channel potentiators, confirmation, FluxOR thallium flux, CHO cells, duplicates (AID 493007)
# test-context: KCNQ1 cell line, FluxOR thallium flux fluorescence, at 10 µM, % of reference activator effect, buffer zero
Calls of active or inactive are those of the source.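 How the source made its calls: active means potentiation averaged over duplicate wells exceeding buffer-only control mean by more than 3 SD; inactive means the rest.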
Answer with one of the outcomes TRUE (active), FALSE (inactive)

compound=CCCCCCCCCCCCN1[C@@H](CC(=O)O)c2cc(F)ccc2S1(=O)=O label_class=TRUE
compound=CCOC(=O)c1c(CN2CCN(CCO)CC2)n(C)c2cc(Br)c(OC)cc12 label_class=FALSE
compound="CCC1(C)Cc2c(sc3nc(SC)[nH]c(=S)c23)CO1 (stereo unspecified)" label_class=TRUE
compound=Cc1ccc(S(=O)(=O)Nc2cccc3ncccc23)s1 label_class=TRUE
compound=COCCN(CCOC)Cc1cc(=O)oc2cc3c(cc12)CCC3 label_class=TRUE

Now look at this entry.
Exam item: Called result for COC(=O)c1sc(-c2ccc(C(C)(C)C)cc2)cc1NC(=O)/C=C/C(=O)O
Marked response: TRUE

* * *

# experiment-notes: thallium flux activation in parental CHO cells, counter-screen for KCNQ1 potentiator project (AID 493006);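 for activation: fluorescence ratio of max minus min over baseline after K+ and Tl+ depolarization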
# test-context: parental CHO-K1 cells, FluxOR thallium flux, at 10 µM
Active and inactive are the calls of the source.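 How the source made its calls: active means duplicate-averaged activation above buffer control mean plus 5 SD of those controls; inactive means the rest.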
Answer with one of the outcomes active, inactive

compound="N#CC(c1ccc(Cl)cc1)c1ccc2c(C(F)(F)F)cc(C(F)(F)F)nc2n1 (stereo unspecified)" label_class=active
compound=COc1ccc(OC)c(NC(=O)C(=O)NNC(=O)C23CC4CC(CC(C4)C2)C3)c1 label_class=active
compound=O=C(NC(=S)N1CCc2ccccc21)c1ccc(Br)o1 label_class=active
compound=Cc1ccccc1-n1c(C)cc(/C=N/NC(=O)c2ccncc2)c1C label_class=inactive
compound=CCCc1cc(=O)[nH]c(SCC(=O)NC(=O)c2ccccc2)n1 label_class=inactive

Now look at this entry.
Exam item: Called result for CSC(=S)N/N=C/c1ccccc1
Marked response: active

* * *

# System: TRPC4 beta (transient receptor potential cation channel C4), mouse
# experiment-notes: positive allosteric modulators of mouse TRPC4, confirmation, cell-based, Fluo-4, HEK293 TRPC4beta/mu-opioid (AID 2555)
# test-context: DAMGO EC20, Fluo-4 calcium flux, at 10 µM
Active and inactive are the calls of the source.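 How the source made its calls: active means primary screen hit whose calcium fluorescence ratio, in both repeats, exceeds the weak agonist control mean by 3 SD; inactive means the rest.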
Answer with one of the outcomes active, inactive

compound=CCCCN(CC)CCNC(=O)c1cc2cc3ccc(Cl)cc3nc2o1 label_class=active

Exam item: Called result for Cc1cccc(C(=O)NNC(=S)NC(=O)c2cccs2)c1
Marked response: inactive

Exam item: Okay, and NC(=Nc1ccccc1)Nc1ccccc1 ?
Marked response: inactive

Exam item: Okay, and CN(C)C(CNC(=O)Cc1cccc(C(F)(F)F)c1)c1ccccc1 (configuration not stated) ?
Marked response: inactive

Exam item: Okay, and O=C(CCC1CCCC1)c1c(O)c2ccccc2oc1=O ?
Marked response: inactive

Exam item: Okay, and CCCCC(=O)NNC(=S)NC(=O)C(c1ccccc1)c1ccccc1 ?
Marked response: inactive

Exam item: Okay, and CC(=O)Nc1ccc(CN2CCCC(C(=O)c3ccc(C(F)(F)F)cc3)C2)cc1 (configuration not stated) ?
Marked response: inactive

* * *

# assayed-target: Potassium voltage-gated channel subfamily KQT member 2 (Rattus norvegicus)
# experiment-notes: rat KCNQ2 channel potentiation, selectivity assay for KCNQ1 potentiator project, KCNQ2-CHO-K1 cells (AID 493009);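 note: assay conditions were tuned for KCNQ1 rather than KCNQ2 modulators; signal is max minus min fluorescence divided by baseline after thallium stimulus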
# test-context: FluxOR thallium flux fluorescence, at 10 µM, scaled: buffer 0, activator control 100
Activity calls are given as the source filed them.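 The calls were made as follows: active = mean duplicate potentiation above the buffer control mean plus 5 SD of buffer wells; inactive = the rest.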
Answer with one of the outcomes active, inactive

Example entries begin here.
compound=COc1ccccc1OCCc1nnc(N)s1 label_class=inactive
compound=CC(C)Cn1c(=S)[nH]c2cc(Cl)ccc21 label_class=active
compound=C=CCn1c(O)c(N=NC(=S)Nc2ccccc2C)c2cc(S(=O)(=O)N3CCOCC3)ccc21 label_class=active
compound="COC(=O)C1SCC2C(=O)N(Cc3ccc(F)cc3)CC(=O)N21 (stereo unspecified)" label_class=active
compound=Cn1c(=O)nc2n(Cc3ccccc3)c3ccccc3cc-2c1=O label_class=inactive
compound=Cc1ccc(C)c(SCC(=O)NC(=O)Nc2ccc3c(c2)OCCO3)c1 label_class=inactive
compound="CSCC(C)N1CCC(n2nccc2NC(=O)CCOc2ccccc2)CC1 (stereo unspecified)" label_class=inactive
compound=Cc1ccc(NC(=S)N/N=C2/CCCCc3ccccc32)cc1 label_class=active
compound=Cc1c(/C=N\NC(=O)c2ccc(F)cc2)cnn1C label_class=inactive
compound=Cc1ccc2[nH]c(=O)c(CN(CCCN(C)C)C(=S)NCCc3ccccc3)cc2c1 label_class=inactive

Now look at this entry.
Exam item: Called result for CCOC(=O)COc1cc(-n2c(=S)[nH]c3cc(OC)c(OC)cc3c2=O)c(Cl)cc1Cl
Marked response: inactive

Source listed as PubChem BioAssay.
